Where these numbers come from: ChEMBL document CHEMBL3112521

Recorded inhibition of growth at 5 µg/mL by entry
- Tested on: OVCAR-8
- measurement.protocol: Cytotoxicity against human OVCAR8 cells assessed as growth inhibition at 5 ug/ml by MTT assay
- Assay type: functional
- study.conditions: read-out: GI
Note: unit % is implicit; provide only the numeric part.

{"columns": ["chemical.smiles", "inhibition of growth at 5 µg/mL [%]"],
 "data": [
  ["Clc1cccc(/C=N/Nc2cnc3ccccc3n2)c1", 0]
]}

[Q] Can you share its inhibition of growth at 5 µg/mL? I mean this molecule: O=[N+]([O-])c1ccc(/C=N/Nc2cnc3ccccc3n2)cc1
[A] 40.6

[Q] Can you share its inhibition of growth at 5 µg/mL? I mean this molecule: COc1ccc(/C=N/Nc2cnc3ccccc3n2)cc1
[A] 14.4
